test-method-notes: Clearance in ICR mouse at 0.5 umol/kg, iv
Assay type: ADME, organism-based
test-parameters: in vivo

smiles-data	clearance
C[C@H]1CN(C(=O)c2cn3c4c(cccc24)OC[C@H]3C2CCCCC2)CCN1C	134 mL/min/kg

* * *

test-method-notes: Elimination half life in ICR mouse at 0.5 umol/kg, iv
Assay type: ADME, organism-based
test-parameters: in vivo, read-out: beta t1/2 (converted)

smiles-data	half-life / min
C[C@H]1CN(C(=O)c2cn3c4c(cccc24)OC[C@H]3C2CCCCC2)CCN1C	13.8

* * *

test-method-notes: Aqueous solubility of the compound at phosphate buffer solution of pH 7
Format: physicochemical

molecule	solubility [µg/mL]
CCN1CCN(C(=O)c2cn3c4c(cccc24)CCC3C2CCCCC2)CC1 (configuration not stated)	114
CCN1CCN(C(=O)c2cn3c4c(cccc24)OC[C@@H]3C2CCCCC2)CC1	308

FYI, the data here is from ChEMBL document CHEMBL1208772.
